tested on: dengue virus type 2; experiment: Functional assay to measure dose dependent changes in antiviral-drug inhibitory efficacy against Dengue virus type 2 New Guinea C in Vero E6 miRFP670 cells (cotreated with P-gp inhibitor, CP100356). Cells are treated with antiviral candidates that are serially diluted, following infection, cells are fixed. EC50 is reported via analysis of fluorescence intensity using high-content imager. The …; type: organism-based, Chlorocebus sabaeus, Vero C1008; conditions: vero c1008
pEC50: −log10 of the molar value.
attribute measured: pEC50

Ask: Fill in the blank: the reported pEC50 of `O=C(Nc1cc(Cl)cc(-c2ccc3[nH]c(C(=O)O)cc3c2)c1)OCc1ccccc1` is ____.
Reply: < 4.90

Ask: Fill in the blank: the reported pEC50 of `O=C(Nc1ccc2c(c1)CNC2)c1cc(F)cc2[nH]c(-c3ccccc3)nc12` is ____.
Reply: < 5.20

Ask: Fill in the blank: the reported pEC50 of `O=C(Nc1ccc2c(c1)CNC2)c1cc(F)cc2[nH]c(-c3cnc(C4CC4)o3)nc12` is ____.
Reply: 5.64

Ask: Fill in the blank: the reported pEC50 of `CC(C)NC(=O)[C@H](Nc1ccc2c(c1)CNC2)c1cc(Cl)cc2[nH]ncc12` is ____.
Reply: < 4.30

Ask: Fill in the blank: the reported pEC50 of `COCCNC(=O)[C@H](Nc1ccc2c(c1)CNC2)c1cc(Cl)cc(C2CC2)c1` is ____.
Reply: < 4.30

Ask: Fill in the blank: the reported pEC50 of `NCCc1ccc([C@H]2C[C@@H]2c2cc(Cl)cc(NC(=O)OCc3ccccc3)c2)cc1` is ____.
Reply: < 5.20

Ask: Fill in the blank: the reported pEC50 of `CCc1cc(Br)cc2c(Cc3ccc(-c4nnn[nH]4)cc3)c[nH]c12` is ____.
Reply: 4.63

Ask: Fill in the blank: the reported pEC50 of `Cc1cccc(-c2nc3c(C(=O)Nc4ccc5c(c4)CNC5)cc(Cl)cc3[nH]2)c1O` is ____.
Reply: < 4.30

Ask: Fill in the blank: the reported pEC50 of `O=C(Nc1cc(Cl)cc(C(=O)Nc2ccc(C3CCNCC3)cc2)c1)OCc1ccccc1` is ____.
Reply: 5.82

###

Please respond with reported EC90 for every item in the list.
system: Zika virus; assay: Functional CPE-based assay to measure dose dependent changes in antiviral-drug inhibitory efficacy against Zika virus MR766 in Vero E6 miRFP670 cells (cotreated with P-gp inhibitor, CP100356). Cells are treated with antiviral candidates that are serially diluted. EC50 is reported via analysis of MTS assay as a readout of CPE. The assay has been performed by KU Leuven.; type: organism-based, Chlorocebus sabaeus, Vero C1008; conditions: Zika virus, Vero C1008
Give your result in µM as a bare value.

Ask: Fill in the blank: the reported EC90 of `C=CC[C@H]1NCc2cc(NC(=O)c3cc(F)cc4c3CC(=O)N4)ccc21` is ____.
Reply: 19.4

Ask: Fill in the blank: the reported EC90 of `CO[C@H]1C[C@H](n2ncc3c(C(=O)Nc4ccc5c(c4)CNC5)cc(Cl)cc32)C1` is ____.
Reply: 3.53

Ask: Fill in the blank: the reported EC90 of `O=C(Nc1ccc2c(c1)CN[C@H]2C1CC1)c1cc(F)cc2[nH]ncc12` is ____.
Reply: 7.09

Ask: Fill in the blank: the reported EC90 of `CCCn1cc2c(C(=O)Nc3ccc4c(c3)CNC4)cc(Cl)cc2n1` is ____.
Reply: 3.55

Ask: Fill in the blank: the reported EC90 of `CC(C)n1cc2c(C(=O)Nc3ccc4c(c3)CNC4)cc(Cl)cc2n1` is ____.
Reply: 1.93

###

Please respond with reported EC50 for every item in the list.
tested on: dengue virus type 2; assay: Functional immunofluorescence assay to measure dose dependent changes in antiviral-drug inhibitory efficacy against Dengue virus type 2 Thailand/16681/84 in Vero E6/TMPRSS2 cells (cotreated with P-gp inhibitor, Elacridar). Cells are treated with antiviral candidates that are serially diluted, following infection, cells are fixed. EC50 is reported via analysis of immunofluorescence staining. The assay has been performed by Icahn School of Medicine at Mount Sinai.; assay type: organism-based, Chlorocebus sabaeus, VeroE6/TMPRSS2; conditions: Dengue virus, VeroE6/TMPRSS2

Ask: Fill in the blank: the reported EC50 of `CCc1cc(C(=O)Nc2cccc(CN)c2)sc1-c1ccc(Cl)cc1` is ____.
Reply: 1.48 µM

Ask: Fill in the blank: the reported EC50 of `O=C(Nc1cc(Cl)cc(C(=O)Nc2ccc3c(c2)CNCCO3)c1)OCc1ccccc1` is ____.
Reply: 0.669 µM

Ask: Fill in the blank: the reported EC50 of `O=C(O)COc1cccc(NC(=O)c2cc(Cl)cc(NC(=O)OCc3ccccc3)c2)c1` is ____.
Reply: > 50 µM

Ask: Fill in the blank: the reported EC50 of `Cc1cc(C(=O)Nc2ccc3c(c2)CNC3)c2cn[nH]c2c1` is ____.
Reply: > 16.7 µM

Ask: Fill in the blank: the reported EC50 of `O=C(Nc1cc(Cl)cc([C@H]2CN(Cc3ccccc3)C[C@@H]2c2cccc(-c3nn[nH]n3)c2)c1)OCc1ccccc1` is ____.
Reply: 3.42 µM

Ask: Fill in the blank: the reported EC50 of `O=C(Nc1ccc2c(c1)CNC2)c1cc(Cl)cc2ccncc12` is ____.
Reply: > 50 µM

Ask: Fill in the blank: the reported EC50 of `CC[C@H](Cc1nn[nH]n1)c1ccc(N[C@H](C(=O)NC)c2cc(Cl)cc(NC(=O)OCc3ccccc3)c2)cc1` is ____.
Reply: > 50 µM

Ask: Fill in the blank: the reported EC50 of `CNC(=O)[C@H](Nc1cc(Cl)cc(NC(=O)OCc2ccccc2)c1)c1cccc(-c2nn[nH]n2)c1` is ____.
Reply: > 50 µM

Ask: Fill in the blank: the reported EC50 of `CCOc1cccc(-c2ccc(S(=O)(=O)Nc3ccc(Cl)cc3C(=O)O)cc2C)c1` is ____.
Reply: 0.175 µM

Ask: Fill in the blank: the reported EC50 of `CCc1cc(C(=O)Nc2cccc(-c3nnn[nH]3)c2)sc1-c1ccc(Cl)cc1` is ____.
Reply: > 16.7 µM

Ask: Fill in the blank: the reported EC50 of `O=C(Nc1ccc2c(c1)CNC2)c1cc(Br)cc2[nH]c(-c3ccccc3)nc12` is ____.
Reply: > 50 µM

Ask: Fill in the blank: the reported EC50 of `CC(C)Cc1nc2c(C(=O)Nc3ccc4c(c3)CNC4)cc(Br)cc2[nH]1` is ____.
Reply: > 5.56 µM

Ask: Fill in the blank: the reported EC50 of `O=C(Nc1cc(Cl)cc(C(=O)Nc2cccc(-n3nn[nH]c3=O)c2)c1)OCc1ccccc1` is ____.
Reply: 38.1 µM

Ask: Fill in the blank: the reported EC50 of `O=C(Nc1ccc2c(c1)CNC2)c1cc(Cl)ccc1SC1CCCC1` is ____.
Reply: > 16.7 µM

Ask: Fill in the blank: the reported EC50 of `Clc1ccc2[nH]cc(Cc3ccc(-c4nn[nH]n4)cc3)c2c1` is ____.
Reply: 24.6 µM

Ask: Fill in the blank: the reported EC50 of `CC(=O)Nc1cc(Cl)cc(C(=O)Nc2cccc(CN)c2)c1` is ____.
Reply: > 16.7 µM

Ask: Fill in the blank: the reported EC50 of `O=C(Nc1ccc2c(c1)CNC2)c1cccc2[nH]ncc12` is ____.
Reply: > 50 µM

Ask: Fill in the blank: the reported EC50 of `C[C@@H](N)c1cccc(NC(=O)[C@H]2[C@H]3CCCCC[C@H]3[C@H]2NC(=O)OCc2ccccc2)c1` is ____.
Reply: > 5.56 µM

Ask: Fill in the blank: the reported EC50 of `N#CCCNC(=O)[C@H](Nc1ccc2c(c1)CNC2)c1cc(Cl)cc(C2CC2)c1` is ____.
Reply: > 50 µM

Ask: Fill in the blank: the reported EC50 of `Cc1c(C(=O)Nc2cc(-c3cccnc3)ccn2)cc(C2CC2)n1C` is ____.
Reply: 46 µM

Ask: Fill in the blank: the reported EC50 of `O=C(Nc1cnc2c(c1)CNCC2)c1cc(Cl)cc2[nH]ncc12` is ____.
Reply: > 50 µM

Ask: Fill in the blank: the reported EC50 of `O=C(Nc1cc(Cl)cc(C(=O)Nc2cccc([C@H]3CCNC3)c2)c1)OCc1ccccc1` is ____.
Reply: > 5.56 µM

Ask: Fill in the blank: the reported EC50 of `CC[C@@H](Cc1nnn[nH]1)c1ccc(NC(=O)c2cc(Cl)cc(NC(=O)OCc3ccccc3)c2)cc1` is ____.
Reply: 10.4 µM

Ask: Fill in the blank: the reported EC50 of `O=C1Cc2c(cc(Br)cc2C(=O)Nc2ccc3c(c2)CNC3)N1` is ____.
Reply: > 50 µM

Ask: Fill in the blank: the reported EC50 of `CC[C@H](Cc1nnn[nH]1)c1ccc(NC(=O)c2cc(Cl)cc(C3CC3)c2)cc1` is ____.
Reply: > 16.7 µM

Ask: Fill in the blank: the reported EC50 of `O=C(Nc1cc(Cl)cc(S(=O)(=O)Nc2cccc(-c3nn[nH]n3)c2)c1)OCc1ccccc1` is ____.
Reply: > 50 µM

Ask: Fill in the blank: the reported EC50 of `Cc1ccc2cc(Cl)cc(C(=O)Nc3ccc4c(c3)CNC4)c2n1` is ____.
Reply: > 5.56 µM

Ask: Fill in the blank: the reported EC50 of `O=C(Nc1ccc2c(c1)CNC2)c1cc(Br)cc2[nH]c(Cc3ccccc3)nc12` is ____.
Reply: > 16.7 µM

Ask: Fill in the blank: the reported EC50 of `COC(=O)CNC(=O)[C@H](Nc1ccc2c(c1)CNC2)c1cc(Cl)cc(C2CC2)c1` is ____.
Reply: > 50 µM

Ask: Fill in the blank: the reported EC50 of `CCOC(=O)Nc1cc(Cl)cc(C(=O)Nc2cccc(CN)c2)c1` is ____.
Reply: > 16.7 µM

Ask: Fill in the blank: the reported EC50 of `O=C(Nc1ccc2c(c1)CCNCC2)c1cc(Cl)cc2[nH]ncc12` is ____.
Reply: > 50 µM

Ask: Fill in the blank: the reported EC50 of `O=S(=O)(Nc1cccc(-c2nnn[nH]2)c1)c1cc(Cl)cc(-c2ccccc2)c1` is ____.
Reply: 0.611 µM

Ask: Fill in the blank: the reported EC50 of `CNC(=O)[C@H](Nc1ccc2c(c1)CNC2)c1cc(Cl)cc2[nH]ncc12` is ____.
Reply: > 50 µM

Ask: Fill in the blank: the reported EC50 of `CCOc1cccc(-c2ccc(S(=O)(=O)Nc3cc4c(cc3C(=O)O)CCC4)cc2)c1` is ____.
Reply: > 16.7 µM

Ask: Fill in the blank: the reported EC50 of `NCCc1cccc(NC(=O)[C@H]2[C@H]3CCCCC[C@H]3[C@H]2NC(=O)OCc2ccccc2)c1` is ____.
Reply: 0.852 µM

Ask: Fill in the blank: the reported EC50 of `Cn1cc(CCc2nc3c(C(=O)Nc4ccc5c(c4)CNC5)cc(Cl)cc3[nH]2)cn1` is ____.
Reply: > 16.7 µM

Ask: Fill in the blank: the reported EC50 of `O=C(Nc1ccc2c(c1)CNCCC2)c1cc(Cl)cc2[nH]ncc12` is ____.
Reply: 26 µM

Ask: Fill in the blank: the reported EC50 of `NS(=O)(=O)c1ccc(C2CCN(Cc3c[nH]c4ccccc34)CC2)cc1` is ____.
Reply: > 50 µM

Ask: Fill in the blank: the reported EC50 of `NCc1cccc(NC(=O)c2cc(Cl)cc3c2CCC3)c1` is ____.
Reply: > 10 µM

Ask: Fill in the blank: the reported EC50 of `O=C(Nc1cc(Cl)cc(C(=O)Nc2cc(Br)cc(-c3nnn[nH]3)c2)c1)OCc1ccccc1` is ____.
Reply: 11.4 µM
